Tested on: SK-MEL-2
Assay explanation: NCI tumour cell line growth inhibition, 48 h
The source made the active and inactive calls. Rule as the data show it: active = GI50 up to about 1.1 µM and inactive = higher.
Valid outcomes are listed here; reply with one: true (active), false (inactive)

Some solved cases for reference:
[[record]]
molecule = "Cn1cnc([N+](=O)[O-])c1Sc1nncc2[nH]cnc12"
test_system = "SK-MEL-2"
group = "false"

[[record]]
molecule = "COc1cc(OC)c2nc(C)c(CCCl)c(Cl)c2c1"
test_system = "SK-MEL-2"
group = "false"

[[record]]
molecule = "Brc1ccc2[nH]c3c(C4=NCCC4)nccc3c2c1"
test_system = "SK-MEL-2"
group = "false"


State the result this test recorded for `CS[C@]12C(=O)C[C@@]3(C)[C@@H](CC[C@]3(O)C(=O)CO)[C@@H]1CCC1=CC(=O)CC[C@@]12C` .
false

For `Cn1cnc([N+](=O)[O-])c1Sc1nccn1-c1cccc2ccccc12` , which call appears in the assay record?
false

Outcome? `CCOC(=O)CC(=O)Nc1cccc2nc[nH]c12`
false

* * *

System: HOP-92
Assay explanation: NCI tumour cell line growth inhibition, 48 h
The source made the active and inactive calls. Rule as the data show it: active = GI50 up to about 1.1 µM and inactive = higher.
Measured GI50 accompanies every entry in the list below.

Recorded results for 6 compounds are shown here.
[[record]]
compound = "CN(C)CCS/C(=N\\c1ccccc1)N1C=COC=C1"
result = "26.2 µM (inactive)"

[[record]]
compound = "COc1c(C)c(C/C=C(\\C)CCCCO[Si](C(C)C)(C(C)C)C(C)C)c(OC)c2ccccc12"
result = "> 100 µM (inactive)"

[[record]]
compound = "CNC(=O)OCc1c(CO)nc(SC)n1C"
result = "> 100 µM (inactive)"

[[record]]
compound = "Cc1cn(C2CC(OP(=O)(O)OCC3OC(n4c[n+]([BH2-]C#N)c5c(=O)[nH]c(N)nc54)CC3O)C(CO)O2)c(=O)[nH]c1=O (centres undefined)"
result = "> 100 µM (inactive)"

[[record]]
compound = "CCC1C(c2cc(OC)c(OC)c(OC)c2)c2cc3c(cc2OC1N1CCCC1)OCO3 (centres undefined)"
result = "4.18 µM (inactive)"

[[record]]
compound = "CCC12CCCN(Cc3ccccc3)C1c1c(n(C)c3ccccc13)C(CO)C2 (centres undefined)"
result = "33.4 µM (inactive)"


Item: `COC(=O)C1(C(=O)OC)CC2=C(S(=O)(=O)c3ccccc3)C[C@@H](C#N)[C@H]2C1` | GI50: 28.9 µM (inactive)

Form: compound = CCC1OC2C(CC=C(C)C)=C3OC(C)(O)C(C)(CC)C(O)C3=C3OC(=O)C=C1C32 (centres undefined) ; GI50 = 17.3 µM (inactive)

Recorded GI50 (compound `O=C(/C=C/c1ccc([N+](=O)[O-])o1)N1CCN(Cc2ccccc2)CC1` ): 14.1 µM (inactive)

* * *

System: HT-29
Assay explanation: NCI tumour cell line growth inhibition, 48 h
Activity calls are given as the source filed them. Rule as the data show it: active = GI50 up to about 1.1 µM and inactive = higher.
Write down one outcome, taken from 1 (active), -1 (inactive)

Example entries begin here.
[[record]]
compound = "CC(=O)Oc1ccc2cc(Oc3cc(Cl)c(Cl)cc3Cl)c(=O)oc2c1"
group = -1

[[record]]
compound = "C/C(=N\\NC(=S)N1CCCCCCCCCCCC1)c1ccccn1"
group = 1

[[record]]
compound = "NCCCCNCCCNC(=O)CNC(=O)CC(O)C(N)CCCC(NC(=O)C(CN)NC(=O)C(O)CNC(=O)CC(N)c1ccc(O)cc1)C(=O)O (stereo not given)"
group = -1

[[record]]
compound = "Cc1ccc2c(c1)CC1(Cc3ccccc3C1=O)C2=O (stereo not given)"
group = -1


Now let's try a different one.
Identify the outcome logged in this assay for the compound shown: `O=C(/C=C/c1ccc([N+](=O)[O-])o1)N1CCN(Cc2ccccc2)CC1`
-1

* * *

Test system: UACC-62
Assay explanation: NCI tumour cell line growth inhibition, 48 h
Calls of active or inactive are those of the source. No stated cut-off is given here; in the data, active = GI50 up to about 1.1 µM and inactive = higher.
Field 'call' accepts active, inactive

Use these answered entries as a reference point.
[[record]]
compound = "CC(C)CCC[C@@H](C)[C@H]1CC[C@H]2[C@@H]3CC=C4C[C@@H](OC(=O)c5cccc6c(=O)c7ccccc7[nH]c56)CC[C@]4(C)[C@H]3CC[C@]12C"
group = "inactive"

[[record]]
compound = "COc1ccc(-c2cc(-c3ccccc3)nc(N)c2-c2ccc3ccccc3c2)cc1"
group = "inactive"

[[record]]
compound = "COc1ccc(C2SCC(=O)N2NC2=NC(=O)CC(=O)N2)cc1 (stereo not drawn)"
group = "inactive"

[[record]]
compound = "N#CC(C(=N/NC(N)=S)/C(=N/NC(N)=S)C(C#N)c1ccc(Cl)cc1)c1ccc(Cl)cc1 (stereo not drawn)"
group = "inactive"


Hi team, can someone confirm the assay call for `O=C1/C(=C/c2cccc([N+](=O)[O-])c2)Cc2ccccc21` ?
inactive

In this assay, the call recorded for Cc1ccc2c(c1)CC1(Cc3ccccc3C1=O)C2=O (stereo not drawn) was what?
inactive

* * *

System: SF-268
Assay explanation: NCI tumour cell line growth inhibition, 48 h
Active and inactive are the calls of the source. No stated cut-off is given here; in the data, active = GI50 up to about 1.1 µM and inactive = higher.
Bench note: report the call from 1 = active, 0 = inactive

[[record]]
compound = "CCSCCCSCCSCC"
test_system = "SF-268"
group = 0

[[record]]
compound = "O=C1c2ccccc2C(=O)c2c(NCC3CO3)ccc(NCC3CO3)c21 (stereo not given)"
test_system = "SF-268"
group = 1

[[record]]
compound = "OC1(C(Sc2cc(C(F)(F)F)cc(C(F)(F)F)c2)Sc2cc(C(F)(F)F)cc(C(F)(F)F)c2)C=CCCC1 (stereo not given)"
test_system = "SF-268"
group = 0

[[record]]
compound = "CCOC(=O)C1(C)CCC(C(C(=O)O)C(=O)O)CC1=O (stereo not given)"
test_system = "SF-268"
group = 0


Assay outcome for `COc1c(C)c2c(c3c1c(=O)c1ccccc1n3C)C=CC(C)(C)O2` : what was it?
0

Call for entry NCCCCNCCCNC(=O)CNC(=O)CC(O)C(N)CCCC(NC(=O)C(CN)NC(=O)C(O)CNC(=O)CC(N)c1ccc(O)cc1)C(=O)O (stereo not given) :
0

I would be grateful if you could indicate the recorded call for `CCCCN(CCCC)c1c([N+](=O)[O-])c(=O)nc2ccccn12` .
0

Status in this test for Nc1ccn(CC(O)c2cc3ccccc3[nH]2)c(=O)n1 (stereo not given) ?
0

Short answer needed: outcome of this test for `C[Si](C)(C)C(Sc1ccccc1)(Sc1ccccc1)Sc1ccccc1` ?
0

What outcome does the record of this test show for `COc1ccc(/C(=C\c2cc(OC)c(OC)c(OC)c2)C(=O)O)cc1` ?
0

* * *

Tested on: UO-31
Assay explanation: NCI tumour cell line growth inhibition, 48 h
Activity calls are given as the source filed them. Rule as the data show it: active = GI50 up to about 1.1 µM and inactive = higher.
Observation type: GI50

Observe how each entry below is paired with its result.
[[record]]
molecule = "CCOC(=O)C(=O)C(C#N)c1ccc(Cl)cc1 (stereo not given)"
test_system = "UO-31"
result = "88.1 µM (inactive)"

[[record]]
molecule = "O=C(O)c1ccccc1/N=C/c1ccc(N(CCCl)CCCl)cc1"
test_system = "UO-31"
result = "> 65.2 µM (inactive)"

[[record]]
molecule = "CCC(=O)OC1CCn2c1nc1c2C(=O)C(C)=C(NC(C)=O)C1=N (stereo not given)"
test_system = "UO-31"
result = "2.2 µM (inactive)"

[[record]]
molecule = "NC1=CN(CCCO)C2=N/C(=C\\c3ccccc3)C(=O)N12"
test_system = "UO-31"
result = "> 100 µM (inactive)"


Now take the following molecule into account.
The reported value for `C[Si](C)(C)C(Sc1ccccc1)(Sc1ccccc1)Sc1ccccc1` in terms of GI50 is > 100 µM (inactive)

* * *

Test system: HOP-92
Assay explanation: NCI tumour cell line growth inhibition, 48 h
The source made the active and inactive calls. No stated cut-off is given here; in the data, active = GI50 up to about 1.1 µM and inactive = higher.
Log the outcome using a class from active, inactive

[[record]]
compound = "Nc1ncc(Cc2nn3c(COc4ccc(Cl)cc4)nnc3s2)s1"
group = "inactive"

[[record]]
compound = "NC1=CN(CCCO)C2=N/C(=C\\c3ccccc3)C(=O)N12"
group = "inactive"

[[record]]
compound = "CCCC1NC(C#N)(C#N)C(CCC)NC1(C#N)C#N (stereo unspecified)"
group = "active"

[[record]]
compound = "Nc1nc(Cl)cc(NCCCCCNc2cc(Cl)nc(N)n2)n1"
group = "inactive"

[[record]]
compound = "CCOC(=O)C(=O)C(C#N)c1ccc(Cl)cc1 (stereo unspecified)"
group = "inactive"


Tell me the assay call for `CC(=O)OCc1ccc2oc(=O)c(C(=O)Oc3cccc(Cl)c3)cc2c1` please.
inactive

Dear colleague, could you share the recorded outcome for `COC(=O)c1cc2ccc(N)nc2[nH]c1=O` when you have a moment?
inactive

Please let me know the test result on file for N=C1OC(c2c[nH]c3ccc(OCc4ccccc4)cc23)C(O)=C1O (stereo unspecified) .
inactive

Identify the outcome logged in this assay for the compound shown: `N#Cc1c(-c2ccc(Cl)cc2)c(C#N)c(=O)n(NS(=O)(=O)c2ccccc2)c1-c1ccccc1`
inactive

What was the test verdict on `NNC(=S)N/N=C/C(=C/Nc1ccccc1)[N+](=O)[O-]` ?
inactive

Which outcome was entered for the compound `Cc1ccc(S(=O)(=O)OI(O)CC(F)(F)F)cc1` in this test?
inactive
